The origin of these recorded values is the CheMixHub ionic liquid set.

Measured electrical conductivity, listed per entry for reference.
Test Method Notes: xn = mol fraction of the nth substance listed
Condition Set: 293.15 K; 101 kPa; x1 = 4.811e-05; x2 = 0
Provide only the numeric value, understood in S/m.

Examples from the recorded data:
1) CCCCCCCCCCCCCC[n+]1ccccc1.O=C([O-])C(O)c1ccccc1 + C[C@H](N)C(=O)O + O	0.0129
2) CCCCCCCCCCCCCC[n+]1ccccc1.O=C([O-])C(O)c1ccccc1 + CC(C)[C@H](N)C(=O)O + O	0.0129
3) CCCCCCCCCCCCCC[n+]1ccccc1.O=C([O-])C(O)c1ccccc1 + NCC(=O)NCC(=O)O + O	0.0129
4) CCCCCCCCCCCCCC[n+]1ccccc1.O=C([O-])C(O)c1ccccc1 + CC(C)C[C@H](N)C(=O)O + O	0.0129

Which electrical conductivity is listed for CCCCCCCCCCCCCC[n+]1ccccc1.O=C([O-])C(O)c1ccccc1 + NCC(=O)O + O ?
0.0129

====

Test Method Notes: xn = mol fraction of the nth substance listed
Condition Set: 303.15 K; 101 kPa; x1 = 6.85e-06; x2 = 0
Documented electrical conductivity across a set of compounds
Provide only the numeric value, understood in S/m.

Some compounds with known electrical conductivity results, for comparison:
1. CCCCCCCCCCCCCC[n+]1ccccc1.O=C([O-])C(O)c1ccccc1 + CC(C)[C@H](N)C(=O)O + O	0.00309
2. CCCCCCCCCCCCCC[n+]1ccccc1.O=C([O-])C(O)c1ccccc1 + C[C@H](N)C(=O)O + O	0.00309
3. CCCCCCCCCCCCCC[n+]1ccccc1.O=C([O-])C(O)c1ccccc1 + CC(C)C[C@H](N)C(=O)O + O	0.00309

// query electrical conductivity value for entry CCCCCCCCCCCCCC[n+]1ccccc1.O=C([O-])C(O)c1ccccc1 + NCC(=O)O + O
0.00309

Same question for CCCCCCCCCCCCCC[n+]1ccccc1.O=C([O-])C(O)c1ccccc1 + NCC(=O)NCC(=O)O + O please.
0.00309

====

Test Method Notes: xn = mol fraction of the nth substance listed
Condition Set: 308.15 K; 101 kPa; x1 = 5.982e-05; x2 = 0
Reported electrical conductivity values for a set of compounds
Please reply with the bare figure in S/m and do not write the unit itself.

Example results:
1. CCCCCCCCCCCCCC[n+]1ccccc1.O=C([O-])C(O)c1ccccc1 + CC(C)C[C@H](N)C(=O)O + O	0.0202
2. CCCCCCCCCCCCCC[n+]1ccccc1.O=C([O-])C(O)c1ccccc1 + NCC(=O)NCC(=O)O + O	0.0202
3. CCCCCCCCCCCCCC[n+]1ccccc1.O=C([O-])C(O)c1ccccc1 + CC(C)[C@H](N)C(=O)O + O	0.0202
4. CCCCCCCCCCCCCC[n+]1ccccc1.O=C([O-])C(O)c1ccccc1 + NCC(=O)O + O	0.0202

Kindly review the next compound as well.
Request the reported electrical conductivity associated with CCCCCCCCCCCCCC[n+]1ccccc1.O=C([O-])C(O)c1ccccc1 + C[C@H](N)C(=O)O + O
0.0202

====

Test Method Notes: xn = mol fraction of the nth substance listed
Condition Set: 298.15 K; 101 kPa; x1 = 2.811e-05; x2 = 0
In this section, each of the molecules is paired with its reported electrical conductivity.
Give the quantity in S/m, number only.

Worked examples follow.
1. CCCCCCCCCCCCCC[n+]1ccccc1.O=C([O-])C(O)c1ccccc1 + C[C@H](N)C(=O)O + O	0.0097
2. CCCCCCCCCCCCCC[n+]1ccccc1.O=C([O-])C(O)c1ccccc1 + NCC(=O)O + O	0.0097
3. CCCCCCCCCCCCCC[n+]1ccccc1.O=C([O-])C(O)c1ccccc1 + NCC(=O)NCC(=O)O + O	0.0097
4. CCCCCCCCCCCCCC[n+]1ccccc1.O=C([O-])C(O)c1ccccc1 + CC(C)C[C@H](N)C(=O)O + O	0.0097

Here is another molecule to look at.
What value of electrical conductivity has been reported for the following molecule? CCCCCCCCCCCCCC[n+]1ccccc1.O=C([O-])C(O)c1ccccc1 + CC(C)[C@H](N)C(=O)O + O
0.0097

====

Quick reference: electrical conductivity of the listed items.
Test Method Notes: xn = mol fraction of the nth substance listed
Condition Set: 308.15 K; 101 kPa; x1 = 6.559e-05; x2 = 0
The figure you give is taken to be in S/m; do not add the unit.

1. CCCCCCCCCCCCCC[n+]1ccccc1.O=C([O-])C(O)c1ccccc1 + NCC(=O)NCC(=O)O + O	0.0213

Reported electrical conductivity for CCCCCCCCCCCCCC[n+]1ccccc1.O=C([O-])C(O)c1ccccc1 + CC(C)C[C@H](N)C(=O)O + O : what is it?
0.0213

Try this compound next: CCCCCCCCCCCCCC[n+]1ccccc1.O=C([O-])C(O)c1ccccc1 + C[C@H](N)C(=O)O + O
0.0213

// next record CCCCCCCCCCCCCC[n+]1ccccc1.O=C([O-])C(O)c1ccccc1 + CC(C)[C@H](N)C(=O)O + O
0.0213

Same question for CCCCCCCCCCCCCC[n+]1ccccc1.O=C([O-])C(O)c1ccccc1 + NCC(=O)O + O please.
0.0213

====

Test Method Notes: xn = mol fraction of the nth substance listed
Condition Set: 303.15 K; 101 kPa; x1 = 8.072e-05; x2 = 0
Attribute Measured: electrical conductivity (S/m)
Please give a number only; it is taken to be in S/m.

// below: answered compounds
1. CCCCCCCCCCCCCC[n+]1ccccc1.O=C([O-])C(O)c1ccccc1 + CC(C)C[C@H](N)C(=O)O + O	0.0217
2. CCCCCCCCCCCCCC[n+]1ccccc1.O=C([O-])C(O)c1ccccc1 + NCC(=O)NCC(=O)O + O	0.0217
3. CCCCCCCCCCCCCC[n+]1ccccc1.O=C([O-])C(O)c1ccccc1 + CC(C)[C@H](N)C(=O)O + O	0.0217

electrical conductivity lookup needed for CCCCCCCCCCCCCC[n+]1ccccc1.O=C([O-])C(O)c1ccccc1 + C[C@H](N)C(=O)O + O , thanks.
0.0217

Would you kindly repeat that for CCCCCCCCCCCCCC[n+]1ccccc1.O=C([O-])C(O)c1ccccc1 + NCC(=O)O + O ?
0.0217

====

Listed below: electrical conductivity values for each entry.
Test Method Notes: xn = mol fraction of the nth substance listed
Condition Set: 303.15 K; 101 kPa; x1 = 7.604e-05; x2 = 0
Lab note: write values as number then unit, every time.

Completed entries (count: 3):
1. CCCCCCCCCCCCCC[n+]1ccccc1.O=C([O-])C(O)c1ccccc1 + CC(C)[C@H](N)C(=O)O + O	0.0209 S/m
2. CCCCCCCCCCCCCC[n+]1ccccc1.O=C([O-])C(O)c1ccccc1 + C[C@H](N)C(=O)O + O	0.0209 S/m
3. CCCCCCCCCCCCCC[n+]1ccccc1.O=C([O-])C(O)c1ccccc1 + NCC(=O)NCC(=O)O + O	0.0209 S/m

I'd like to know its electrical conductivity. The compound in question is CCCCCCCCCCCCCC[n+]1ccccc1.O=C([O-])C(O)c1ccccc1 + NCC(=O)O + O
0.0209 S/m

Same lookup for CCCCCCCCCCCCCC[n+]1ccccc1.O=C([O-])C(O)c1ccccc1 + CC(C)C[C@H](N)C(=O)O + O , please.
0.0209 S/m
